Please provide measured pIC50 for the entries that follow.
- Tested on: human keratinocytes
- assayExplanation: Cell proliferation assay
- Format: cell-based
- appliedConditions: Homo sapiens, Keratinocyte, 72 h; 3 days incubation; 50% inhibition of cell proliferation; Table 1; read-out: IC50 (inhibitory concentration)
One number for each entry, as −log10 of the molar value.

# batch size: 3; output pIC50 per entry
1. CC1=C(/C=C/C(C)=C/C=C/C(C)=C/COC(=O)CCCCCCCC(=O)OC/C=C(C)/C=C/C=C(C)/C=C/C2=C(C)CCCC2(C)C)C(C)(C)CCC1 [Di-retinyl azelate, di-retinyl azelate]
2. CCOC(=O)c1ccccc1OC(=O)CCCCCCCC(=O)Oc1ccccc1C(=O)OCC [di(ethyl salicylate)azelate]
3. O=C(O)CCCCCCCC(=O)O [Azelaic acid, reference compound]

output:
1: 4.82; 2: 3.52; 3: 2.82

====

- assayExplanation: in vitro
- appliedConditions: human, keratinocytes
metricName: selectivity ratio
Numbers only.

input: Could you share which selectivity ratio value was measured for O=C(O)c1ccccc1O [Salicylic acid, o-hydroxybenzoic acid, reference compound] ?
output: 3.8

====

- assayExplanation: in vitro
- appliedConditions: human, keratinocytes, cytotoxic concentrations higher than inhibitory concentrations
Please provide measured selectivity ratio for the entries that follow.

| compound | selectivity ratio |
| --- | --- |
| CC1=C(/C=C/C(C)=C/C=C/C(C)=C/COC(=O)CCCCCCCC(=O)OC/C=C(C)/C=C/C=C(C)/C=C/C2=C(C)CCCC2(C)C)C(C)(C)CCC1 [Di-retinyl azelate, di-retinyl azelate] | 6.6 to 10 |

# context switch: different compound, same selectivity ratio
input: Could you share which selectivity ratio value was measured for CCOC(=O)c1ccccc1OC(=O)CCCCCCCC(=O)Oc1ccccc1C(=O)OCC [di(ethyl salicylate)azelate] ?
output: 6.6 to 10

====

- assayExplanation: in vitro
- appliedConditions: human, keratinocytes
Please provide measured CC50 at 72 h for the entries that follow.
One number for each entry, in mM.

# batch size: 4; output CC50 at 72 h per entry
1. CCOC(=O)c1ccccc1OC(=O)CCCCCCCC(=O)Oc1ccccc1C(=O)OCC [di(ethyl salicylate)azelate]
2. CC1=C(/C=C/C(C)=C/C=C/C(C)=C/COC(=O)CCCCCCCC(=O)OC/C=C(C)/C=C/C=C(C)/C=C/C2=C(C)CCCC2(C)C)C(C)(C)CCC1 [Di-retinyl azelate, di-retinyl azelate]
3. O=C(O)c1ccccc1O [Salicylic acid, o-hydroxybenzoic acid, reference compound]
4. O=C(O)CCCCCCCC(=O)O [Azelaic acid, reference compound]

output:
[3, 0.1, 6, 4]

====

- System: human keratinocytes
- assayExplanation: Cell proliferation assay
- Assay type: cell-based
- appliedConditions: Homo sapiens, Keratinocyte, 72 h, read-out: IC50 (inhibitory concentration)
metricName: pIC50
Answers are plain numbers, as −log10 of the molar value.

input: Could you share which pIC50 value was measured for O=C(O)c1ccccc1O [Salicylic acid, o-hydroxybenzoic acid, reference compound] ?
output: 2.80

Just for reference, patent US6180669A is where these values come from.
